Molecular target: Glucocorticoid receptor (Homo sapiens)
Assay: NVS_NR_hGR: NovaScreen (NVS) Nuclear Receptor Binding Assay for human Glucocorticoid Receptor (GR) (AID 2283363)
Records with an inconclusive call do not appear. Activity calls are given as the source filed them. The calls were made as follows: active = hit-call score of the fitted dose curve at least 0.9, where 1 is the maximum; inconclusive = response in the unintended direction; inactive = score below 0.9.
The reply should be one of these categories: active, inactive

Known results for compounds:
1. COC(=O)c1ccccc1C(=O)O	active
2. C=CCOC(Cn1ccnc1)c1ccc(Cl)cc1Cl (centres undefined)	active
3. CCCN(CCC)C(=O)SCC	active

Prompt: // param item: CC1(C)C(C=C(Cl)Cl)C1C(=O)OCc1cccc(Oc2ccccc2)c1 (centres undefined) ; yields the recorded call
Completion: inactive

###

System: NCBI gene 100848466
Test: NVS_NR_bPR: NovaScreen (NVS) Nuclear Receptor Binding Assay for bovine Progextron Receptor (PR) (AID 2283343)
Inconclusive results are not listed. Active and inactive are the calls of the source. Rule for the calls: active = hit-call score of the fitted dose curve at least 0.9, where 1 is the maximum; inconclusive = response in the unintended direction; inactive = score below 0.9.
The reply should be one of these categories: yes (active), no (inactive)

Known results for compounds:
1) c1ccc(Nc2ccccc2)cc1	no
2) O=C(c1ccc(O)cc1O)c1ccc(O)cc1O	yes
3) CCNc1nc(N)nc(Cl)n1	no

Prompt: // param item: CCCCOCCOCCOCc1cc2c(cc1CCC)OCO2 ; yields the recorded call
Completion: no

Prompt: // param item: CCCN(CCC)C(=O)SCC ; yields the recorded call
Completion: no

Prompt: // param item: Oc1ccc(C(c2ccc(O)cc2)C(Cl)(Cl)Cl)cc1 ; yields the recorded call
Completion: yes

Prompt: // param item: CC(C)CCCCCCc1ccc(O)cc1 ; yields the recorded call
Completion: no

Prompt: // param item: C[C@]12CC[C@@H]3c4ccc(O)cc4C[C@@H](CCCCCCCCCS(=O)CCCC(F)(F)C(F)(F)F)[C@H]3[C@@H]1CC[C@@H]2O (stereo partly drawn) ; yields the recorded call
Completion: no

###

Experiment: ATG_E_Box_CIS: Attagene CIS-FACTORIAL HepG2 Assay for human Enhancer Box (E-box) (AID 2282936)
Settings: HepG2 E-box cis-reporter transcription, actives raise or lower the signal
Experimental: ATG_CIS is a cell-based, multiplexed-readout assay that uses HepG2, a human liver cell line, with measurements taken at 24 hours after chemical dosing in a 24-well plate.ATG_E_Box_CIS is one of 52 assay component(s) measured or calculated from the ATG_CIS assay. […] This assay endpoint, ATG_E_Box_CIS, was analyzed with bidirectional fitting relative to DMSO as the negative control and baseline of activity. […]
The source made the active and inactive calls. The calls were made as follows: active = hit-call score of the fitted dose curve at least 0.9, where 1 is the maximum; inactive = score below 0.9.
The reply should be one of these categories: active, inactive

Known results for compounds:
1. C#CCOC(=O)[C@@H](C)Oc1ccc(Oc2ncc(Cl)cc2F)cc1	inactive
2. CCC(O)=C1C(=O)CC(C(=O)O)CC1=O (stereo not given)	inactive
3. CN(C)C(=O)Nc1ccc(Cl)c(Cl)c1	inactive

Prompt: // param item: CCOC(=O)NCCOc1ccc(Oc2ccccc2)cc1 ; yields the recorded call
Completion: inactive

Prompt: // param item: CCCOC(=O)c1ccc(C(=O)OCCC)nc1 ; yields the recorded call
Completion: inactive

###

Experiment: CCTE_Mundy_HCI_Cortical_Synap_Neur_Matur_NeuriteSpotCountPerNeuron: CCTE's Synaptogenesis and Neurite Maturation Assay in rat cortical cells for Neurite Spot Count per Neuron Count, Mundy Lab (AID 2284215)
Experimental: CCTE_Mundy_HCI_Cortical_Synap&Neurite_Matur is a multiplexed, cell-based-readout assay that uses rat primary cortical cells with measurements taken at 288.33 hours after chemical dosing in a microplate: 96-well plate.CCTE_Mundy_HCI_Cortical_Synap_Neur_Matur_NeuriteSpotCountPerNeuron is one of eight components of the CCTE_Mundy_HCI_Cortical_Synap&Neurite_Matur assay. […]
Activity calls are given as the source filed them. How the source made its calls: active means hit-call score of the fitted dose curve at least 0.9, where 1 is the maximum; inactive means score below 0.9.
The reply should be one of these categories: TRUE (active), FALSE (inactive)

1) Cc1nn(C)c(Oc2ccccc2)c1C=NOCc1ccc(C(=O)OC(C)(C)C)cc1	TRUE
2) CSC(=O)c1cccc2nnsc12	FALSE
3) CCN(CC)C(=O)c1cccc(C)c1	FALSE

Prompt: // param item: S=C(S)NCCNC(=S)S.[Mn+2].[S-]C([S-])=NCCN=C([S-])[S-].[Zn+2] ; yields the recorded call
Completion: FALSE

Prompt: // param item: S=C([S-])NCCNC(=S)[S-].[Mn+2] ; yields the recorded call
Completion: FALSE

Prompt: // param item: CCCN(CCC)C(=O)SCC ; yields the recorded call
Completion: FALSE

Prompt: // param item: CC(C)(c1ccc(O)cc1)c1ccc(O)cc1 ; yields the recorded call
Completion: TRUE
